Molecular target: T1, HCV Core1-169 (HCV-1, UniProt P26664 1-169)
T1 construct: also called recombinant HCV core antigen
T1 sequence: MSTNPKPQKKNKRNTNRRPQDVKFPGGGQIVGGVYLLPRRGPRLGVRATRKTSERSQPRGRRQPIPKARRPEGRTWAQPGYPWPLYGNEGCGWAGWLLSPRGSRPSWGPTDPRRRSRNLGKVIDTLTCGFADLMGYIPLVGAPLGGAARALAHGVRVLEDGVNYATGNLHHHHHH
Assay: EIA, core1-169 coated on plate; note: test concentration or dose not given here
Measured OD (A492) by item
# output: bare number, implied unit OD

BINDER: HCV 208A-222 (antibody, V domains shown) VH: EVQLQQSGPELEKPGASVRISCKTSGYTFTEYAMHWVKQSHGKSLEWIGGINPNNGNAIYNQIFKDKATLTVDRSSSTAYMGLRSLTFGDSGVYFCVRRQLDYFDYWGQGASLTVSS VL: DIVVTQSPASLAVSLGQRATISCRASQSVSTSRYSYLHWYQQKPGQPPKLLIKYASNLESGVPARFSGSGSGTDFTLNIHPVGEEDTATYYCQHSWEFPFTFGSGTKLEIKR
UNIT OF MEASURE: OD
OD (A492): 1.06
//
BINDER: HCV 208B-1096 (antibody, V domains shown) VH: QVQLQQSGAGLAKPGASVKMSCKASGYTFTANKMHWAKQRPGQGLEWIGYIDPSSGYTEYNHKIQYKATLTADTSSSTAYMQLSTLTFEDSAVYYCTNFAYWGQGTLVTVSA VL: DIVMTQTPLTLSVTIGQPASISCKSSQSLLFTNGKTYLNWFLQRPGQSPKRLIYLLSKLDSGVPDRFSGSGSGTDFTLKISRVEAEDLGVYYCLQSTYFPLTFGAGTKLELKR
UNIT OF MEASURE: OD
OD (A492): 0.49
//
BINDER: HCV 208B-589 (antibody, V domains shown) VH: QVQLQQSGAGLAKPGASVKMSCKASGYTFTANKMHWAKQRPGQGLEWIGYIDPSSGYTEYNHKIQDKATLTADTSSSTAYMQLSSLTFEDSAVYYCTNFAYWGQGTLVTVSA VL: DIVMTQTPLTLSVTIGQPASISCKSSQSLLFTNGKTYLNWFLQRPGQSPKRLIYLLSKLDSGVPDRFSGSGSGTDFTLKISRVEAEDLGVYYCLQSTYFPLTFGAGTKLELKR
UNIT OF MEASURE: OD
OD (A492): 0.68

GET /values?readout=OD (A492)&item= HCV 208B-515 (antibody, V domains shown) VH: QVQLQQPGAELVKPGASLKLSCRASGYTFTSYWIHWVKQRPGQGLEWIGEIDPSDSYTNYNQKFKGKATLTVDKSSRAAYMQLSSLTSEDSAVYYCARHYYGVFDSWGQGTKLTVSS VL: QIVFTQYPAIMSASLGERVTMTCTASSSVTSSYLHWFQQKPGSSPKLWIYSTSNPGSGVPARFSGRGSGTSYSLSISSMEAEDAATYYCLQFHRSPWTFGGGTKLEIRR
0.06

Similarly, HCV 208A-830 (antibody, V domains shown) VH: EVRLQQPGPEVEKPGASVKISCKTSGYTFTEYAIHWVKQSHGESLEWIGGINPSNGDPIYNQIFKDKATLTVDRSSNTAYMGLRSLTVGDSGVYFCVRRQLDYFDFWGQGASLTVSS VL: DIVLTQSPASLAVSLGQRATISCRSSQSVSTSRYSYLHWYQQKPGQPPKLLIKYASNLESGVPARFSGSGSGTDFTLNIHPVGEEDPATYYCQHSWEFPFTFGSGTKLEIKR ?
1.16
